Settings: Surf. Volpo L23 2.5%, lipid 90H 1.0%, co-surf. S LPC ca. 0.01% (as SL 80-3 0.05%), active agent 0.25%
property_label: Turbidity (FNU)
Reply with the number, then its unit.

compound: CCCCCCCCCCCCCCOC(=O)[C@@H]1CCC(=O)N1 [Myristidone ®]
readout_value: 58.60 FNU

compound: Cc1cc(C2CCCCC2)n(O)c(=O)c1 [Ciclopirox olamine, reference compound]
readout_value: 10.85 FNU

compound: CCCCCCCCCCCCOC(=O)[C@@H]1CCC(=O)N1 [Laurydone ®]
readout_value: 61.70 FNU

compound: Clc1ccc(COC(Cn2ccnc2)c2ccc(Cl)cc2Cl)cc1 (centres unmarked) [Econazole nitrate]
readout_value: 71.50 FNU

Exercise: What does the data say about its Turbidity (FNU)? Entry: Cc1c(C2(c3cc(Br)c(O)c(Br)c3C)OS(=O)(=O)c3ccccc32)cc(Br)c(O)c1Br [Bromocresol Green]
Solution: 19.40 FNU

====

Experiment: Turbidity of surfactant/lipid compositions, formation of macromolecular complexes (Example 1)
Format: physicochemical
Conditions: 2.5% surfactant, 1% 90H lipid, ca. 0.01% S LPC co-surfactant (as 0.05% SL 80-3) in water, room temperature
property_label: Average Turbidity

compound: O=C(O)C(O)c1ccccc1 (racemic) [Mandelic Acid, DL-Mandelic acid]
property_label: Average Turbidity
readout_value: >150 FNU

Turning now to a further compound:
Exercise: What does the data say about its Average Turbidity? Entry: CCCCCCCCCCCCOS(=O)(=O)[O-].[Na+] [SDS, Sodium dodecyl sulphate]
Solution: 26.2 FNU

====

Conditions: Surf. Brij 35P 2.5%, lipid 90H 1.0%, co-surf. S LPC ca. 0.01% (as SL 80-3 0.05%), active agent 0.25%
property_label: Turbidity (FNU)
Reply with the number, then its unit.

Exercise: What does the data say about its Turbidity (FNU)? Entry: CC1CCC(C(C)C)C(OC(=O)[C@@H]2CCC(=O)N2)C1 (stereo partly shown)
Solution: 46.81 FNU

Exercise: What does the data say about its Turbidity (FNU)? Entry: C=CCCCCCCCCC(=O)N[C@@H](Cc1ccccc1)C(=O)O [SepiWhite MSH]
Solution: 10.43 FNU

Exercise: What does the data say about its Turbidity (FNU)? Entry: OCc1cc(C(O)CNCCCCCCOCCCCc2ccccc2)ccc1O (stereo not shown) [Salmeterol xinafoate]
Solution: 5.49 FNU

Exercise: What does the data say about its Turbidity (FNU)? Entry: COC(=O)[C@@H]1[C@H]2C[C@H]3c4[nH]c5ccccc5c4CCN3C[C@@H]2CC[C@@H]1O.Cl [Yohimbine HCl USP]
Solution: 13.42 FNU

Exercise: What does the data say about its Turbidity (FNU)? Entry: COC(=O)[C@@H]1[C@H]2C[C@H]3c4[nH]c5ccccc5c4CCN3C[C@@H]2CC[C@@H]1O.Cl [Yohimbine HCl Crystalline]
Solution: 9.85 FNU

Exercise: What does the data say about its Turbidity (FNU)? Entry: O=C(OCc1ccccc1)c1cccnc1 [Benzyl nicotinate]
Solution: 18.84 FNU

Exercise: What does the data say about its Turbidity (FNU)? Entry: C[C@]12CCC(=O)C=C1CC[C@@H]1[C@@H]2[C@@H](O)C[C@@]2(C)[C@H]1CC[C@]2(O)C(=O)CO [Hydrocortisone]
Solution: 10.00 FNU

Exercise: What does the data say about its Turbidity (FNU)? Entry: `CC(C)c1c(O)ccc2c1CC[C@H]1C(C)(C)CCC[C@]21C`
Solution: 12.89 FNU

Exercise: What does the data say about its Turbidity (FNU)? Entry: CC12CCC(CC1=O)C2(C)C (stereo not shown)
Solution: 26.80 FNU

Exercise: What does the data say about its Turbidity (FNU)? Entry: Cc1cc(CC(C)CC(C)(C)C)n(O)c(=O)c1.NCCO (stereo not shown)
Solution: 9.10 FNU
